Taken from ChEMBL document CHEMBL1141754.

- Tested on: DU-145
- Assay Text: Cytotoxicity against human DU145
- Format: functional, cell-based
pIC50: −log10 of the molar value.
Listed next: entries and their corresponding pIC50.
Readout Kind: pIC50

compound="COc1cc(/C=C/C(O)=C/C(=O)/C=C/c2ccc(O)cc2)ccc1O [DEMETHOXYCURCUMIN]" value_qualifier== experimental_value=4.66
compound="O=C(/C=C/c1ccc(O)cc1)CC(=O)/C=C/c1ccc(O)cc1 [BISDEMETHOXYCURCUMIN]" value_qualifier== experimental_value=4.52
compound="COc1cc2ccc(=O)oc2cc1O [SCOPOLETIN]" value_qualifier=< experimental_value=4.30
compound="COc1cc(/C=C/C(=O)CC(=O)/C=C/c2ccc(O)c(OC)c2)ccc1O [CURCUMIN]" value_qualifier== experimental_value=4.69
compound="C=C1CC[C@H]2C(C)(C)CCC[C@]2(C)[C@H]1C[C@@H](O)C1=CC(O)OC1=O (stereo not given in full) [ZERUMIN B]" value_qualifier== experimental_value=4.95
